Sourced from patent US11999759B2

Assay: Stability of compound 13 prodrugs in human liver microsomes (HLM)
Type: in vitro ADME
Details: 0.500 mg/mL human liver microsomes, no cofactors, prodrug 1.00 μM, t = 10 min
outcome_measure: Average % of initial area ratio at t = 10 min
Provide a numeric answer, followed by its unit.

| compound | observed_measurement |
| --- | --- |
| O=C(OCOC(=O)C1CC1)c1c(F)ccc2c1OB(O)[C@@H]1C[C@H]21 [Compound 27] | 80.4% |
| CC(=O)OCOC(=O)c1c(F)ccc2c1OB(O)[C@@H]1C[C@H]21 [Compound 28] | 23.3% |
| CC(=O)OCC(=O)OCOC(=O)c1c(F)ccc2c1OB(O)[C@@H]1C[C@H]21 [Compound 42] | 10.3% |
| COCC(=O)OCOC(=O)c1c(F)ccc2c1OB(O)[C@@H]1C[C@H]21 [Compound 43] | 44.6% |

// Average % of initial area ratio at t = 10 min value for CCCC(=O)OCOC(=O)c1c(F)ccc2c1OB(O)[C@@H]1C[C@H]21 [Compound 26] : 55.9%

###

Recorded Average % of initial area ratio at t = 5 min for the following compounds
Assay: Stability of compound 13 prodrugs in human liver microsomes (HLM)
Format: in vitro ADME
Conditions: 0.500 mg/mL human liver microsomes, no cofactors, prodrug 1.00 μM, t = 5 min

Below are worked cases with known answers.
| smiles_entry | observed_measurement |
| --- | --- |
| O=C(OCOC(=O)C1CC1)c1c(F)ccc2c1OB(O)[C@@H]1C[C@H]21 | 91.4% |
| CCCC(=O)OCOC(=O)c1c(F)ccc2c1OB(O)[C@@H]1C[C@H]21 | 73.4% |

// Average % of initial area ratio at t = 5 min value for "CC(=O)OCOC(=O)c1c(F)ccc2c1OB(O)[C@@H]1C[C@H]21" : 50.8%

// Average % of initial area ratio at t = 5 min value for "COCC(=O)OCOC(=O)c1c(F)ccc2c1OB(O)[C@@H]1C[C@H]21" : 64.4%

// Average % of initial area ratio at t = 5 min value for "CC(=O)OCC(=O)OCOC(=O)c1c(F)ccc2c1OB(O)[C@@H]1C[C@H]21" : 27.1%

###

Recorded pKi for the following compounds
Target: VIM-1 (Pseudomonas aeruginosa)
Assay: Inhibition of nitrocefin cleavage by purified VIM-1
Conditions: nitrocefin reporter substrate; 10 min preincubation at room temperature; read-out: Ki (VIM-1, NCF)
pKi: −log10 of the molar value.

// pKi value for COc1ccc2c(c1C(=O)O)OB(O)C1C2C1(F)F (stereo not drawn) : < 6.00

// pKi value for "COc1ccc2c(c1C(=O)O)OB(O)C(F)=C2" : 6.00 to 7.00

// pKi value for "O=C(O)c1nccc2c1OB(O)[C@H]1C[C@@H]21" : < 6.00

// pKi value for "COc1ccc2c(c1C(=O)O)OB(O)[C@@H]1COC[C@H]21" : 6.00 to 7.00

// pKi value for COc1ccc2c(c1C(=O)O)OB(O)C1(CO)CC21 (stereo not drawn) : > 7.00

// pKi value for O=C(O)c1cccc2c1OB(O)C1CC21 (stereo not drawn) : > 7.00

###

Molecular target: CTX-M-14 (Escherichia coli)
Sequence (Q9L5C7 29-291, species assumed): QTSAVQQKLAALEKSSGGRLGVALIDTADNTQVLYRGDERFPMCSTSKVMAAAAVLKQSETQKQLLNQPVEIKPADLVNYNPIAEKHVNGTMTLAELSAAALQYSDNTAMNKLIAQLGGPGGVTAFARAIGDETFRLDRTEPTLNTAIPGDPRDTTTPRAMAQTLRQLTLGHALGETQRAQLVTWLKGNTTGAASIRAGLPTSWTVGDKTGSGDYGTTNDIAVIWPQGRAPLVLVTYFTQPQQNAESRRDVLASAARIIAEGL
Experiment: Inhibition of nitrocefin cleavage by purified CTX-M-14
Conditions: nitrocefin reporter substrate; 10 min preincubation at room temperature; read-out: Ki (CTX-M-14, NCF)
pKi: −log10 of the molar value.
outcome_measure: pKi

Below are worked cases with known answers.
| compound | assay_system | observed_measurement |
| --- | --- | --- |
| O=C(O)c1cccc2c1OB(O)C1CC21 (centres unmarked) | CTX-M-14 (Escherichia coli) | > 7.00 |
| COc1ccc2c(c1C(=O)O)OB(O)C1C2C1(F)F (centres unmarked) | CTX-M-14 (Escherichia coli) | > 7.00 |
| COc1ccc2c(c1C(=O)O)OB(O)C1C2[C@H]2C=C[C@@H]1C2 (some centres unmarked) | CTX-M-14 (Escherichia coli) | < 6.00 |

// pKi value for "O=C(O)c1cccc2c1OB(O)[C@@H]1C[C@H]21" : > 7.00

// pKi value for "COc1ccc2c(c1C(=O)O)OB(O)C1=C2COC1" : > 7.00
